Test: Toxicity liver stage against HepG2, at 10uM
Assay type: cell-based
Design: test concentration 10 uM, cell line HepG2-A16-CD81EGFP
Conditions: human, HepG2-A16-CD81EGFP cells; read-out: INHIBITION
EXPERIMENTAL READOUT: cytotoxicity at 10 µM (%)

{"columns": ["MOLECULE", "UOM", "READOUT NUMBER"],
 "data": [
  ["O=C(Cc1cccs1)N1C[C@@H]2OCCN(CC3CCCC3)[C@@H]2C1", "%", -4.75],
  ["c1cc(-c2c[nH]c([C@@H]3COCCN3C3CCCCC3)n2)ccn1", "%", 7.66],
  ["CCOC(C)c1nc(Cn2cc(C(=O)NC)ccc2=O)cs1 (stereo unspecified)", "%", -0.315],
  ["Cc1noc(C)c1CN1CCO[C@H]2CN(Cc3cncn3C)C[C@H]21", "%", -1.62],
  ["CSCC[C@H](N)C(=O)NCc1cc2n(n1)CCCN(C1CCCCC1)C2", "%", -15.3],
  ["Cc1cc(NC(=O)C(C)Cn2cc(Br)cn2)no1 (stereo unspecified)", "%", -2.04],
  ["CCOCC1CN(C(=O)c2ccco2)Cc2cnn(C)c21 (stereo unspecified)", "%", 6.14],
  ["c1ncn(CC2CN(CC3CCCC3)CCO2)n1 (stereo unspecified)", "%", 4.93],
  ["COc1c(C)cnc(CN2CCOC(CNc3cccnn3)C2)c1C (stereo unspecified)", "%", -10.5],
  ["COCCNC(=O)c1cc(OC)c2ccoc2c1", "%", -2.49],
  ["Cc1cc(C)n(CC(C)CNC(=O)[C@@H](C)NC(=O)OC(C)(C)C)n1 (stereo partly specified)", "%", -4.25]
]}
